system: MALME-3M melanoma; experiment: NCI tumour cell line growth inhibition, 48 h; in the data active means GI50 below about 0.43 µM; inactive means the rest
Parameter call: string, one of True for active, False for inactive

Sample answers from the record:
compound: Cn1c2ccccc2c2c3[nH]c(=O)[nH]c(=O)c3c3c4ccccc4n(C)c3c21
groupLabel: False
//
compound: O=C1NN(C2=NNC3(C(=O)N2)c2ccccc2-c2ccccc23)C(c2ccccc2)=N/C1=C/c1ccc(O)cc1
groupLabel: False
//
compound: C=C[C@H]1C[C@@H]2C[C@@H]3[C@H]4C/C=C\C(=O)NCCCC5NC(=O)C(=C(O)/C=C/[C@@H]4CC(=O)[C@H]3[C@@H]2[C@H]1C)C5=O (some centres undefined)
groupLabel: True

Challenge: Assay result, entry CC(=O)O.[Au].c1ccc([PH+](c2ccccc2)c2ccccc2)cc1 — outcome?
Response given: False
